Give measured IC50 for each item. Keep answers brief.
tested on: KB-3-1; assay: Cytotoxicity, sensitive line KB-3-1; assay type: cell-based; details: Homo sapiens, KB 3-1, 96 h; 4 days incubation; read-out: Cytotoxicity IC50, sensitive KB-3-1
Numbers only, in nM.

Consider the molecule Cc1c2ccnc(C(=O)NCCN(C)C)c2cc2c1[nH]c1ccc(O)cc12 [Example 6] . State its measured IC50.
20

Consider the molecule Cc1c2ccnc(C(=O)NCCN(C)C)c2cc2c3cc(O)ccc3n(C)c12 [Example 1] . State its measured IC50.
12

Continuing:
Consider the molecule Cc1c2ccnc(C(=O)NCCCN(C)C)c2cc2c3cc(O)ccc3n(C)c12 [Example 2] . State its measured IC50.
19

----------
tested on: KB-A1; assay: cells; conditions: Homo sapiens, KB-A1, 96 h, read-out: Cytotoxicity IC50, resistant KB-A1
Give measured IC50 for each item. Keep answers brief.
Give bare numbers, in nM.

Some solved cases for reference:
Consider the compound COc1cccc2c1C(=O)c1c(O)c3c(c(O)c1C2=O)C[C@@](O)(C(=O)CO)C[C@@H]3O[C@H]1C[C@H](N)[C@H](O)[C@H](C)O1 [ADR, adriamycin, reference compound] . State its measured IC50.
6870

Consider the compound Cc1c2cc[n+](C)cc2c(C)c2c1[nH]c1ccc(O)cc12 [elliptinium acetate, reference compound] . State its measured IC50.
4320

Consider the compound Cc1c2ccnc(C(=O)NCCN(C)C)c2cc2c1[nH]c1ccc(O)cc12 . State its measured IC50.
737

Consider the compound Cc1c2ccnc(C(=O)NCCCN(C)C)c2cc2c3cc(O)ccc3n(C)c12 . State its measured IC50.
1220

Next compound, please.
Consider the compound Cc1c2ccnc(C(=O)NCCN(C)C)c2cc2c3cc(O)ccc3n(C)c12 . State its measured IC50.
120

----------
tested on: L1210; experiment: Cytotoxicity, line L1210 (Microculture Tetrazolium Assay); format: cell-based, murine; settings: Mus musculus, L1210, 48 h; 2 days incubation; read-out: Cytotoxicity IC50, line L1210
Lab note: cut-off is 0.01 µM. Strictly less in IC50 is Met. Exactly 0.01 µM or more is Not met.

As a guide, the following entries are already answered.
Say whether its IC50 is strictly beneath 0.01 µM. Entry: COc1ccc2[nH]c3c(C)c4ccnc(C(=O)NCCN5CCCC5)c4cc3c2c1
Not met

Say whether its IC50 is strictly beneath 0.01 µM. Entry: COc1ccc2c(c1)c1cc3c(C(=O)NCCN(C)C)nccc3c(C)c1n2C
Not met

Say whether its IC50 is strictly beneath 0.01 µM. Entry: Cc1c2ccnc(C(=O)NCCCCN)c2cc2c3cc(O)ccc3n(C)c12
Not met

Say whether its IC50 is strictly beneath 0.01 µM. Entry: Cc1c2ccnc(C(=O)NCCN(C)C)c2cc2c1[nH]c1ccc(O)cc12
Met

Say whether its IC50 is strictly beneath 0.01 µM. Entry: Cc1c2ccnc(C(=O)NCCN(C)C)c2cc2c3cc(O)ccc3n(C)c12
Met

Say whether its IC50 is strictly beneath 0.01 µM. Entry: Cc1c2ccnc(C(=O)NCCCN(C)C)c2cc2c3cc(O)ccc3n(C)c12
Met

Say whether its IC50 is strictly beneath 0.01 µM. Entry: COc1ccc2[nH]c3c(C)c4ccnc(C(=O)NCCN(C)C)c4cc3c2c1
Not met

Say whether its IC50 is strictly beneath 0.01 µM. Entry: COc1ccc2c(c1)c1cc3c(C(=O)NCCCN(C)C)nccc3c(C)c1n2C
Not met

Continuing:
Say whether its IC50 is strictly beneath 0.01 µM. Entry: COc1ccc2[nH]c3c(C)c4ccnc(C(=O)NCCCN(C)C)c4cc3c2c1
Not met

Say whether its IC50 is strictly beneath 0.01 µM. Entry: Cc1c2ccnc(C(=O)NCCCN(C)C)c2cc2c1[nH]c1ccc(O)cc12
Not met

Say whether its IC50 is strictly beneath 0.01 µM. Entry: Cc1c2ccnc(C(=O)NCCN3CCCC3)c2cc2c3cc(O)ccc3n(C)c12
Not met

Say whether its IC50 is strictly beneath 0.01 µM. Entry: Cc1c2ccnc(C(=O)NCCNCCO)c2cc2c3cc(O)ccc3n(C)c12
Not met

Say whether its IC50 is strictly beneath 0.01 µM. Entry: Cc1c2ccnc(C(=O)NCCCN3CCOCC3)c2cc2c3cc(O)ccc3n(C)c12
Not met

----------
test system: S1; test: Cytotoxicity, sensitive line S1; type: cell-based; details: Homo sapiens, 96 h, read-out: Cytotoxicity IC50, sensitive S1
Measured metric: pIC50
One number for each entry, as −log10 of the molar value.

Consider the compound COc1cccc2c1C(=O)c1c(O)c3c(c(O)c1C2=O)C[C@@](O)(C(=O)CO)C[C@@H]3O[C@H]1C[C@H](N)[C@H](O)[C@H](C)O1 [ADR, adriamycin, reference compound] . State its measured pIC50.
7.44

----------
Give measured T/C for each item. Keep answers brief.
tested on: leukaemia P388; test: Anti-tumour activity against leukaemia P388 in vivo; details: 10 mg/kg, intraperitoneal, day 1
Give bare numbers, in %.

Consider the compound Cc1c2ccnc(C(=O)NCCCN(C)C)c2cc2c3cc(O)ccc3n(C)c12 [Example 2] . State its measured T/C.
190

Consider the compound COc1cccc2c1C(=O)c1c(O)c3c(c(O)c1C2=O)C[C@@](O)(C(=O)CO)C[C@@H]3O[C@H]1C[C@H](N)[C@H](O)[C@H](C)O1 [ADR, adriamycin, reference compound] . State its measured T/C.
290

Consider the compound Cc1c2ccnc(C(=O)NCCN(C)C)c2cc2c1[nH]c1ccc(O)cc12 [Example 6] . State its measured T/C.
233

Next compound, please.
Consider the compound Cc1c2ccnc(C(=O)NCCN(C)C)c2cc2c3cc(O)ccc3n(C)c12 [Example 1] . State its measured T/C.
183

----------
tested on: P388/VCR-20; assay: cells; details: Mus musculus, P388, 48 h, read-out: Cytotoxicity IC50, resistant P388/VCR-20
Give measured pIC50 for each item. Keep answers brief.
Give bare numbers, as −log10 of the molar value.

Some solved cases for reference:
Consider the compound Cc1c2ccnc(C(=O)NCCN(C)C)c2cc2c1[nH]c1ccc(O)cc12 [Example 6] . State its measured pIC50.
8.00

Consider the compound Cc1c2ccnc(C(=O)NCCCN(C)C)c2cc2c3cc(O)ccc3n(C)c12 [Example 2] . State its measured pIC50.
7.42

Consider the compound Cc1c2ccnc(C(=O)NCCN(C)C)c2cc2c3cc(O)ccc3n(C)c12 [Example 1] . State its measured pIC50.
8.40

Next compound, please.
Consider the compound COc1cccc2c1C(=O)c1c(O)c3c(c(O)c1C2=O)C[C@@](O)(C(=O)CO)C[C@@H]3O[C@H]1C[C@H](N)[C@H](O)[C@H](C)O1 [ADR, adriamycin, reference compound] . State its measured pIC50.
6.47
